Values compiled from patent US20100022491A1.

# measured on: recombinant human adrenergic beta 1 receptors (Homo sapiens)
# Construct: purchased Euroscreen
# Sequence (P08588 whole entry): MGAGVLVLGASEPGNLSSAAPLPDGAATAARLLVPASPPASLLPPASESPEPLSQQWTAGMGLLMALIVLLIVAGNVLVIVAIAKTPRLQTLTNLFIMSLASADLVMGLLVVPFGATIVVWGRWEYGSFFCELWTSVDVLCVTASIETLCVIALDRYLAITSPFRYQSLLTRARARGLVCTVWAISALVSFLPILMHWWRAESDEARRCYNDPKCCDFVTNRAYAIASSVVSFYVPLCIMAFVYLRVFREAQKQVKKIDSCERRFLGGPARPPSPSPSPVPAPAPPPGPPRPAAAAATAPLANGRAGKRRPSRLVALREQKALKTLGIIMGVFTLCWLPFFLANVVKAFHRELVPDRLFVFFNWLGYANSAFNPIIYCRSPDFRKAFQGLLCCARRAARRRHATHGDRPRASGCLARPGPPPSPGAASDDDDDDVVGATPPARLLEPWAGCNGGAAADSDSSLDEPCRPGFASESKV
# assay info: Adrenergic β1 selectivity binding assay ([125I]-Iodocyanopindolol)
# assay context: inhibition of [125I]-Iodocyanopindolol (0.036 nM) binding; read-out: β1 bind p IC50 (converted)
Where a name gives a salt, the structure may show the parent alone.
readout name: IC50 (µM)

CC(C)(CO)CN(CCNCCc1ccc(O)c2[nH]c(=O)sc12)C(=O)CCNCCc1ccccc1Cl [Example 65, bis-trifluoroacetic acid salt] | 1

[P] CC(CN(C(=O)CCNCCc1ccccc1)C1CCCCC1)NCCc1ccc(O)c2[nH]c(=O)sc12 (stereo not drawn) [Example 105, bis-trifluoroacetic acid salt]
[Q] O=C(CCNCCc1ccc(Cl)s1)N(CCNCCc1ccc(O)c2[nH]c(=O)sc12)C1CCCCC1 [Example 72, bis-trifluoroacetic acid salt]
Pick one, P or Q : lowest reported IC50. // output: label of the selected item P
(P: 1.58 µM, Q: 3.16 µM)
